Sourced from ChEMBL document CHEMBL3045892

In this section we review reported diameter of the inhibition zone (DIZ) values for a set of compounds.
Tested on: Escherichia coli
ASSAY_EXPLANATION: Antibacterial activity against Escherichia coli ATCC 25922 after 24 hr by disk diffusion method
Assay type: functional

COMPOUND	MEASURE_UNIT	diameter of the inhibition zone (DIZ)
CCCCC/C=C\CC[C@H](O)CCCCCCCC(=O)NN1C(=O)CSC1c1ccc(Cl)cc1 (stereo not given in full)	mm	14.3
CCCCCCCCCCCCCCCC(=O)NN1C(=O)CSC1c1ccc(Cl)cc1 (stereo not given)	mm	23.3
C=CCCCCCCCCC(=O)NN1C(=O)CSC1c1ccc(Cl)cc1 (stereo not given)	mm	19.8
CCCCCC[C@@H](O)C/C=C\CCCCCCCC(=O)NN1C(=O)CSC1c1ccc(Cl)cc1 (stereo not given in full)	mm	14.5
CCCCCCCC/C=C\CCCCCCCC(=O)NN1C(=O)CSC1c1ccc(Cl)cc1 (stereo not given)	mm	17.6
